Data provenance is ChEMBL document CHEMBL4177664.

- Tested on: HCT-116/VM46
- experiment: Antiproliferative activity against human HCT116/VM46 cells after 72 hrs by MTS assay
- Format: functional, cell-based
- condition_parameters: HCT-116/VM46, 72 h
reported_endpoint: pIC50
When answering, recall that pIC50 equals minus log10 of the concentration in mol/L, and write that number alone.

# input Give its pIC50 value. Item: COc1ccc(C2=CN3C(=O)c4cc5c(cc4N=C[C@@H]3C2)OCCCOc2cc3c(cc2OCCCCCCCCO5)C(=O)N2C=C(c4ccc(N)cc4)C[C@H]2C=N3)cc1
# output 9.44

# input Give its pIC50 value. Item: CN1CCN(c2ccc(C3=CN4C(=O)c5cc6c(cc5N=C[C@@H]4C3)OCCCOc3cc4c(cc3OCCCCCCCCO6)C(=O)N3C=C(c5ccc(N6CCN(C)CC6)cc5)C[C@H]3C=N4)cc2)CC1
# output 10.12

# input Give its pIC50 value. Item: O=C1c2cc3c(cc2N=C[C@@H]2CC(c4ccccc4)=CN12)OCCCOc1cc2c(cc1OCCOCCOCCO3)C(=O)N1C=C(c3ccccc3)C[C@H]1C=N2
# output 8.19
